# assay_protocol: Lethal dose in mice upon intraperitoneal administration;Value ranges from(131.6-243.4)
# Format: toxicity, organism-based
# particulars: mouse, in vivo, ip
readout: LD50
Report as: number unit

Looking up `CC(C)C[C@H](NC(=O)[C@@H](O)[C@@H](O)[C@@H](N)CC(=O)O)[C@@H]1Cc2cccc(O)c2C(=O)O1` , I found its LD50 recorded as 179 mg/kg

* * *

# Test system: Rattus norvegicus
# assay_protocol: Gastroprotective activity on stress-induced ulcers in male Wistar rats at 50 mg/kg upon intraperitoneal administration
# Type: functional
Listed next: entries and their corresponding Protection.
Respond with the bare value in %.

Examples with their reported Protection follow.
1. CC(=O)NC1CC(=O)OC1C(OC(C)=O)C(=O)NC(CC(C)C)C1Cc2cccc(OC(C)=O)c2C(=O)O1 (stereo not given): 16
2. CC(=O)NC1CC(=O)OC1C(OC(C)=O)C(=O)NC(CC(C)C)C1Cc2cccc(O)c2C(=O)O1 (stereo not given): 16
3. COc1cccc2c1C(=O)OC(C(CC(C)C)NC(=O)C(O)C(O)C(N)CC(=O)O)C2 (stereo not given): 83

Observed Protection on Rattus norvegicus, entry CC(C)CC(NC(=O)C(O)C1OC(=O)CC1N)C1Cc2cccc(O)c2C(=O)O1 (stereo not given) , equals 83

Observed Protection on Rattus norvegicus, entry CC(C)CC(N)C1Cc2cccc(O)c2C(=O)O1.Cl (stereo not given) , equals 33

* * *

# Test system: Rattus norvegicus
# assay_protocol: Gastroprotective activity on stress-induced ulcers in male Wistar rats at 50 mg/kg upon intraperitoneal administration
# Type: functional
readout: Protection

1) NC(CC(=O)O)C(O)C(O)C(=O)[O-].[Na+] (stereo unspecified): 43%
2) CC(C)CC(NC(=O)C(O)C1C=CC(=O)O1)C1Cc2cccc(O)c2C(=O)O1 (stereo unspecified): 33%
3) CC(=O)NC1CC(=O)OC1C(O)C(=O)NC(CC(C)C)C1Cc2cccc(O)c2C(=O)O1 (stereo unspecified): 66%
4) CC(C)CC(NC(=O)C(O)C(O)C(N)CC(=O)O)C(O)Cc1cccc(O)c1C(=O)[O-].[Na+] (stereo unspecified): 50%
5) CC(C)CC(NC(=O)C(O)C(O)C(N)CC(N)=O)C1Cc2cccc(O)c2C(=O)O1.Cl (stereo unspecified): 100%

Read the next record carefully.
Looking up `CC(C)C[C@H](NC(=O)[C@@H](O)[C@@H](O)[C@@H](N)CC(=O)O)[C@@H]1Cc2cccc(O)c2C(=O)O1` , I found its Protection recorded as 100%

* * *

# assay_protocol: Lethal dose in mice upon intraperitoneal administration;Value ranges from(5-9.8)
# Assay type: toxicity, organism-based
# particulars: mouse, in vivo, ip
readout: LD50 (mg/kg)
Respond with the bare value in mg/kg.

Looking up CC(C)CC(NC(=O)C(O)C(O)C(N)CC(N)=O)C1Cc2cccc(O)c2C(=O)O1.Cl (stereo unspecified) , I found its LD50 recorded as 7
